Experiment: Clearance in rat
Type: ADME, organism-based
Conditions: in vivo
measured.metric: clearance (mL/min/kg)
Write the value in mL/min/kg as a bare number.

Report clearance for `Cc1cc(-c2nncc3c(C(C)(C)C)c(OCc4ncnn4C)nn23)no1`
27

---

Assay: Half life in rat
Type: ADME, organism-based
Details: in vivo
measured.metric: half-life (min)
Write the value in min as a bare number.

Report half-life for `Cc1cc(-c2nncc3c(C(C)(C)C)c(OCc4ncnn4C)nn23)no1`
30
